This collection of values is drawn from PubChem BioAssay.

- Tested on: XIP peptide (Xip251-270) binding
- assay: small-molecule binders of XIP peptide, primary screen, biochemical, small-molecule microarray, fluorescence 635/667 nm, 0.1 µg/mL protein (AID 1182)
- cond: fluorescent protein binding, 635 nm, higher = more signal, called active from +8 up or from −8 down
Calls of active or inactive are those of the source.
property-label: composite z-score

Fill in composite z-score for record CC(C)(C)N1CC=CC23O[C@@H]4C=CCCOC(=O)C4[C@H]2C(=O)N(CCO)[C@@H]3C1=O (stereo partly specified)
-0.692 (inactive)

Fill in composite z-score for record `O=C1c2ccccc2[C@](Cc2ccccc2I)(C(=O)NCC(F)(F)F)[C@H](c2ccc(CO)cc2)N1C1CCCCC1`
0.759 (inactive)

Fill in composite z-score for record Cc1ccccc1C(O)C1C=CC2C(=O)N(C)C(=O)C2N1N(c1ccccc1)c1ccccc1 (stereo unspecified)
-0.0728 (inactive)

Fill in composite z-score for record `COC(=O)[C@@]1(Cc2ccc(OC)cc2)[C@H]2c3cc(C(=O)N4CCCC4)n(Cc4cccc5ccccc45)c3C[C@H]2CN1C(=O)c1ccccc1`
0.0014 (inactive)

Fill in composite z-score for record `COc1ccc(CN(C2=CC[C@@]3(C(N)=O)C(=O)C(Cl)=C(Cl)C(=O)[C@@]3(C#N)C2)S(=O)(=O)c2ccc(Br)cc2)cc1`
0.68 (inactive)

Fill in composite z-score for record `COCCOC(=O)N1C(=O)[C@@]2(c3cc(C#CC4=CCCCC4)ccc31)[C@H](C(=O)N1CCCCCCC1)[C@H]1C(=O)O[C@H](c3ccccc3)[C@H](c3ccccc3)N1[C@@H]2c1ccc(O)cc1`
0.179 (inactive)

Fill in composite z-score for record COC1OC[C@]2(C)[C@H]3C4=C(CN2C(=O)OC(C)(C)C)[C@H](C)C(CO)C(CO)C4CC[C@@H]13 (stereo partly specified)
1.48 (inactive)

Fill in composite z-score for record `C=C(C)c1cc2c(c(CCCCCC)n1)[Si](C(C)C)(C(C)C)OC2`
-0.525 (inactive)

Fill in composite z-score for record `C=C(/C(=C/C[C@H](OC(C)=O)c1cccc(OCCO)c1)c1cnc2ccccc2c1)C(C)C`
-0.328 (inactive)

Fill in composite z-score for record COC(=O)C1=CC(CCCO)=CC(C2CC2)N(C)C=C1C(=O)OC (stereo unspecified)
0.473 (inactive)

Fill in composite z-score for record NC(=O)N1C(=O)C2C(C1=O)C1C=C(CCCO)C2C(c2cccs2)N1Cc1cccc(OC(F)(F)F)c1 (stereo unspecified)
1.07 (inactive)

Fill in composite z-score for record `COc1ccc([Si](C)(C)[C@@H]2[C@@H](CCO)O[C@]3(C(=O)N(Cc4ccc(N5CCCCC5=O)cc4)c4ccccc43)[C@H]2C)cc1`
2.99 (inactive)

Fill in composite z-score for record C=CCC(OC(C)=O)[C@@H]1[C@@H](N(Cc2ccc(-c3cccc(C(F)(F)F)c3)o2)C(=O)c2ccc(-c3ccccc3)cc2)c2cc(OCCCO)ccc2N1C(=O)c1ccc2ccccc2n1 (stereo partly specified)
-0.211 (inactive)

Fill in composite z-score for record `COCCOC(=O)N1C(=O)[C@@]2(c3cc(C#Cc4ccc(OC)cc4)ccc31)[C@H](C(=O)Nc1nc3ccccc3s1)[C@H]1C(=O)O[C@H](c3ccccc3)[C@H](c3ccccc3)N1[C@@H]2c1ccc(O)cc1`
-0.363 (inactive)

Fill in composite z-score for record CCCCCCCCCCC(O)C1C=CC2C(=O)N(C)C(=O)C2N1NC(=O)OC(C)(C)C (stereo unspecified)
0.0658 (inactive)

Fill in composite z-score for record `NC(N)=NCCCn1cc(CNC(=O)[C@@H](N)Cc2ccccc2)nn1`
0.196 (inactive)

Fill in composite z-score for record `CCCCCCc1nc(-c2cc(C)c(OC)c(C)c2)c(C)c2c1[Si](C(C)C)(C(C)C)OC2`
-0.31 (inactive)

Fill in composite z-score for record O=C1C2C=CC(C(O)c3ccc(F)cc3)N(n3cnnc3)C2C(=O)N1Cc1ccccc1 (stereo unspecified)
0.34 (inactive)

Fill in composite z-score for record `C[C@@H]1ON(c2ccc(C(=O)OC(C)(C)C)cc2)[C@H](c2ccc(O)cc2)[C@H]1C(=O)N1C(=O)OC[C@H]1Cc1ccccc1`
0.047 (inactive)

Fill in composite z-score for record `COCCCNC(=O)[C@@]1(Sc2ccc(C)cc2)CC(=O)N(C2CCCCC2)[C@@H]1c1ccc(CO)cc1`
-0.0795 (inactive)

Fill in composite z-score for record `O=C(NCc1ccccc1)[C@@H]1c2ccccc2C(=O)N(Cc2ccccc2C(F)(F)F)[C@H]1c1ccc(CO)cc1`
0.55 (inactive)

Fill in composite z-score for record CC(CO)N1C(=O)[C@@H]2[C@H]3C(=O)OCC=C[C@H]3OC23C=CCN(Cc2ccccc2)C(=O)[C@@H]13 (stereo partly specified)
-0.542 (inactive)

Fill in composite z-score for record O=C1NC(=O)C2C1C=CC(C(O)c1cccc3ccccc13)N2Nc1ccc(Cl)cc1Cl (stereo unspecified)
1.46 (inactive)

Fill in composite z-score for record CC(C)C(CO)N1C(=O)[C@@H]2C3C(=O)OCCC/C=C\[C@H]3OC23C=CCN(C(C)(C)C)C(=O)[C@@H]13 (stereo partly specified)
-0.68 (inactive)

Fill in composite z-score for record O=C1C2C=CC(C(O)c3ccccc3)N(Nc3ccccc3F)C2C(=O)N1c1ccccc1 (stereo unspecified)
1.07 (inactive)

Fill in composite z-score for record `COc1ccc([Si](C)(C)[C@@H]2[C@@H](CC(=O)N3Cc4ccccc4C[C@H]3CO)O[C@]3(C(=O)N(Cc4cccc(N5C(=O)c6cccc7cccc5c67)c4)c4ccccc43)[C@H]2C)cc1`
1.26 (inactive)

Fill in composite z-score for record CCOC(=O)C1CCCCN1 (stereo unspecified)
-0.679 (inactive)

Fill in composite z-score for record `O=C(N1CCCCC1)[C@@]1(CCS(=O)(=O)c2ccccc2)COC(c2ccc(OCCCO)cc2)=N1`
1.16 (inactive)

Fill in composite z-score for record `CC(C)N1C(=O)c2ccccc2[C@@H](C(=O)NC2CC2)[C@@H]1c1ccc(CO)cc1`
0.11 (inactive)

Fill in composite z-score for record `C=CC[C@]1(C(=O)O)COC(c2ccc(OCCCO)cc2)=N1`
0.324 (inactive)

Fill in composite z-score for record `CC(C)OC(=O)C=C1C[C@@H](c2ccc(C(F)(F)F)cc2)O[C@@H](c2ccc(C(F)(F)F)cc2)O1`
0.416 (inactive)

====

- assay: binders from COS7 lysate, DM2A8 probe, primary screen, torsin A project, cell lysate, small-molecule microarray, fluorescence 635/667 (AID 1065)
- cond: higher = more signal, COS7 lysate expressing mutant human TOR1A
Could you please report measured composite z-score for the items listed next?
Lab note: record just the number, no unit beside it.

Fill in composite z-score for record `CN(C)C(=O)[C@@]1(CCS(=O)(=O)c2ccccc2)N=C(c2ccc(OCCCO)cc2)O[C@H]1c1ccccc1`
0.79

Fill in composite z-score for record `CC(C)N1C(=O)C[C@@](C(=O)NCCCN(C)C)(c2ccc([N+](=O)[O-])cc2)[C@H]1c1ccc(CO)cc1`
-0.351

Fill in composite z-score for record `COc1cc(CO)cc(I)c1O[C@H]1C=C(C(=O)NCCO)C[C@@H](NCc2ccc(F)cc2)[C@@H]1O`
0.254

Fill in composite z-score for record `C=C(C)c1cc2c(c(CCCCCC)n1)[Si](C(C)C)(C(C)C)OC2`
-1.42

Fill in composite z-score for record `Cc1ccc(S[C@]2(C(=O)NCC(F)(F)F)CC(=O)N(C3CCCCC3)[C@@H]2c2ccc(CO)cc2I)cc1`
0.0659

Fill in composite z-score for record O=C1OCCC/C=C\[C@H]2OC34C=CCN(CCN5CCOCC5)C(=O)[C@H]3N(CCCCCCO)C(=O)[C@@H]4C12 (some centres undefined)
2.31

Fill in composite z-score for record [N-]=[N+]=Nc1ccccc1[C@@H]1OC(c2ccc(OCCCO)cc2)=N[C@]1(Cc1ccccc1)C(=O)NCC(O)CO (some centres undefined)
2.11

Fill in composite z-score for record `C=CCN1C(=O)[C@@]2(O[C@@H](CCn3cc([C@H](O)c4ccccc4)nn3)[C@H]([Si](C)(C)c3ccc(OC)cc3)[C@H]2C)c2cc(N3CCC3=O)ccc21`
0.175

Fill in composite z-score for record `CCCCC(=C=CC[C@@H](O)c1ccccc1OCCO)C[C@@H](O)COCc1ccccc1`
0.0282

Fill in composite z-score for record `Cc1ccc(S[C@]2(C(=O)NCC(F)(F)F)CC(=O)N(Cc3ccccc3)[C@@H]2c2ccc(CO)cc2I)cc1`
0.156

Fill in composite z-score for record `O=C(N1CCCCC1)[C@@]1(CCS(=O)(=O)c2ccccc2)COC(c2ccc(OCCCO)cc2)=N1`
1.92

Fill in composite z-score for record `O=C1O[C@H](c2ccccc2)[C@H](c2ccccc2)N2[C@H]1[C@@H](C(=O)NC[C@H](O)c1ccccc1)[C@]1(C(=O)Nc3ccc(C#CCCO)cc31)[C@H]2c1ccc(OCCO)cc1`
0.628

Fill in composite z-score for record `CC(C)(C)OC(=O)CC[C@]1(C(=O)NCc2ccccc2)N=C(c2ccc(OCCCO)cc2)O[C@H]1c1ccccc1CN=[N+]=[N-]`
0.357

Fill in composite z-score for record `C=CCNC(=O)[C@H]1[C@@H]2C(=O)O[C@@H](c3ccccc3)[C@@H](c3ccccc3)N2[C@@H](c2ccc(O)cc2)[C@]12C(=O)Nc1ccc(C#CC3(O)CCCCCC3)cc12`
1.01

Fill in composite z-score for record `CC(C)OC(=O)C=C1C[C@@H](c2ccc(C(F)(F)F)cc2)O[C@@H](c2ccc(C(F)(F)F)cc2)O1`
1.92

Fill in composite z-score for record `CCOC(=O)C1=CC[C@@H](c2cccc(Cl)c2)N(S(=O)(=O)c2ccc(C)cc2)C1`
0.627

Fill in composite z-score for record `COc1ccc(C#Cc2ccc3c(c2)[C@]2(C(=O)N3)[C@H](c3ccc(O)cc3)N3[C@H](c4ccccc4)[C@H](c4ccccc4)OC(=O)[C@H]3[C@@H]2C(=O)O)cc1`
0.413

Fill in composite z-score for record `CCOC(=O)C[C@H]1[C@H](OC(=O)c2cc3ccccc3oc2=O)[C@@H](NC(=O)c2ccc(-c3ccccc3)cc2)c2cc(OCCCO)ccc2N1C(=O)c1ccc2ccccc2n1`
0.804

Fill in composite z-score for record `O=C1N(Cc2ccccc2)c2ccccc2[C@@H]2OC(c3ccc(OCCCO)cc3)=N[C@]12Cc1ccccc1`
-0.603

Fill in composite z-score for record `COC(=O)c1nc2oc1CC[C@@H](CO)NC(=O)N(C)Cc1cnnn1C[C@H](Cc1ccccc1)NC2=O`
-0.328

Fill in composite z-score for record `CO[C@H]1O[C@H](CO)[C@@H](OC(=O)Nc2ccccc2-c2ccccc2)[C@H](OC(=O)Nc2ccc3c(c2)OCO3)[C@H]1OC(=O)Nc1ccc2c(c1)OCO2`
0.866

Fill in composite z-score for record `CCOC(=O)C[C@H]1[C@H](OC(=O)c2ccccc2-c2ccccc2)[C@@H](NC(=O)c2ccc(-c3ccccc3)cc2)c2cc(OCCCO)ccc2N1C(=O)c1ccc2ccccc2n1`
0.286

Fill in composite z-score for record C=CCC(OC(C)=O)[C@@H]1[C@@H](N(Cc2cccc3ccccc23)C(=O)Cc2ccc(F)cc2)c2cc(OCCCO)ccc2N1C(=O)c1ccc2ccccc2n1 (some centres undefined)
-0.0938

Fill in composite z-score for record `C=CC[C@]1(C(=O)NCCN2CCOCC2)N=C(c2ccc(OCCCO)cc2)O[C@H]1c1ccccc1CN=[N+]=[N-]`
1.46

Fill in composite z-score for record `O=C(CS)NCCCCCNC(=O)[C@@H]1C[C@@H]2C(=O)N3CCC[C@H]3C(=O)N2[C@@H]1c1cccc(OCCO)c1`
1.59

Fill in composite z-score for record O=C1NC(=O)C2C1C=CC(C(O)CCc1ccccc1)N2Nc1ccc(Cl)cc1Cl (centres undefined)
1.42

Fill in composite z-score for record C=CCC(OC(C)=O)[C@@H]1[C@@H](N(Cc2cc3ccccc3o2)C(=O)Cc2ccc(F)cc2)c2cc(OCCCO)ccc2N1C(=O)c1ccc2ccccc2c1 (some centres undefined)
-0.186

Fill in composite z-score for record COC(=O)C1=CC(CCCO)=CC(C2CC2)N(C)C=C1C(=O)OC (centres undefined)
-0.144

Fill in composite z-score for record `COc1ccc(CCNC(=O)[C@@H]2c3ccccc3C(=O)N(Cc3cc(C(F)(F)F)cc(C(F)(F)F)c3)[C@H]2c2ccc(CO)cc2)cc1`
-0.138
